Origin of the recorded values: PubChem BioAssay (NCI)

Test system: BT-549 breast
Assay: NCI-60 one-dose screen, 48 h (100 = growth as untreated, 0 = no growth, -100 = all killed)
Details: 10 µM unless noted
This is part of a sample that, as a whole, favours compounds with a hit. Of some 83,000 tested, about 20% had one in any assay.

molecule: CCOC(=O)/C(O)=C(\C=N\C(=S)Nc1ccc(Cl)c(Cl)c1)C(=O)OCC
unitTag: %
growth: 100
--
molecule: CCCCOC(=O)c1ccccc1O
unitTag: %
growth: 109
--
molecule: NS(=O)(=O)c1cc(=O)[nH]c(=O)[nH]1
unitTag: %
growth: 107
--
molecule: C=CCc1cc(OC)c(O)c(OC)c1
unitTag: %
growth: 106
--
molecule: O=C1C=Cc2ccccc2/C1=C/c1[nH]c(=O)[nH]c1O
unitTag: %
growth: 20.6
--
molecule: CCCC1OC(c2ccco2)OCC1CC (configuration not stated)
unitTag: %
growth: 98.3
--
molecule: CC(=O)NC(O)C(Cl)Cl (configuration not stated)
unitTag: %
growth: 85.9
